Measured values drawn from patent US9732061B2 for this set.

# SUBJECT_OF_TEST: Human CB2R (Cannabanoid receptor 2) (Homo sapiens (Human))
# Sequence (P34972 whole entry): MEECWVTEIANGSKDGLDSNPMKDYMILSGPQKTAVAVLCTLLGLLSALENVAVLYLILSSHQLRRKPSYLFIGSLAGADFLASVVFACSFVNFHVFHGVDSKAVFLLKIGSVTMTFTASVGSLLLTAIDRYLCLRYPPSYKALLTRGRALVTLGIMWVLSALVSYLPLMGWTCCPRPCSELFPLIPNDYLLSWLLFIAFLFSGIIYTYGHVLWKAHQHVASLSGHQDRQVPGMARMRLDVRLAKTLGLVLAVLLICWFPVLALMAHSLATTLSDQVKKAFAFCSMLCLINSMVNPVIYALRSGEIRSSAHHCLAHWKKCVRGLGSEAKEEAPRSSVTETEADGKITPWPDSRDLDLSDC
# PROTOCOL_SUMMARY: CB-2 in vitro cAMP (HTRF) assay
# Format: cell-based
# CONDITION_SUMMARY: HEK-293 cells stably transfected with human CB2R, 250 nM Forskolin, mean where tested more than once
EXPERIMENTAL_READOUT: EC50 (µM)

# example entries with known answers
O=S(=O)(c1ccccc1)N1CCC(Nc2cnnc3ccc(C(c4ccc(Cl)cc4)c4ccc(Cl)cc4)cc23)C1 (stereo not drawn): 0.849
Oc1ccc(CNc2cnnc3ccc(C(c4ccc(Cl)cc4)c4ccc(Cl)cc4)cc23)cc1: 5.93
O=C(O)c1ccc(CCNc2cnnc3ccc(C(c4ccc(Cl)cc4)c4ccc(Cl)cc4)cc23)cc1: 2.79
O=C(O)c1ccccc1CN1CCC(Nc2cnnc3ccc(C(c4ccc(Cl)cc4)c4ccc(Cl)cc4)cc23)CC1: 9.9
O=S(=O)(N1CCC(Nc2cnnc3ccc(C(c4ccc(Cl)cc4)c4ccc(Cl)cc4)cc23)C1)C(F)(F)F (stereo not drawn): 1.93

I = O=S(=O)(N1CCC(Nc2cnnc3ccc(C(c4ccc(Cl)cc4)c4nccs4)cc23)CC1)C(F)(F)F (stereo not drawn)
II = O=S(=O)(N1CCC(Nc2cnnc3ccc(C(c4ccc(Cl)cc4)c4ccc(Cl)cc4)cc23)CC1)C(F)(F)F
Asked: Given the listed records, identify the one among I and II with higher EC50. Mark your selection by writing its label.
Given back: II
(II: 3.35 µM, I: 0.665 µM)

1 = Clc1ccc(C(c2ccc(Cl)cc2)c2ccc3nncc(NCCc4ccccc4)c3c2)cc1
2 = O=C(O)c1cccc(S(=O)(=O)N2CCC(Nc3cnnc4ccc(C(c5ccc(Cl)cc5)c5ccc(Cl)cc5)cc34)CC2)c1
3 = COc1ccc(C(c2ccc(Cl)cc2)c2ccc3nncc(NC4CCN(S(=O)(=O)C(F)(F)F)CC4)c3c2)cc1 (stereo not drawn)
Asked: Parameters: sort_field (EC50), sort_dir (desc). The labels, placed in the requested order, form the answer.
Given back: 2, 1, 3

a = O=C(O)c1ccc(S(=O)(=O)N2CCC(Nc3cnnc4ccc(C(c5ccc(Cl)cc5)c5ccc(Cl)cc5)cc34)CC2)o1
b = O=C(O)c1ccc(CN2CCC(Nc3cnnc4ccc(C(c5ccc(Cl)cc5)c5ccc(Cl)cc5)cc34)CC2)s1
Asked: Determine, for a and b , which has the greater value of EC50. Identify your selection by its label.
Given back: a
(a: 5.6 µM, b: 3.69 µM)
